Provenance of the data: patent US20220017478A1

Tested on: MDA-MB-231 cells overexpressing Bcl-3
Assay: Boyden chamber cell motility assay
Assay type: cell-based, human
Conditions: Homo sapiens; MDA-MB-231 overexpressing Bcl-3; read-out: IC50 cell motility (Boyden chamber)
quantity: IC50 (nM)
Give bare numbers, in nM.

IN: Find the measured IC50: item `O=C(Nc1ccccc1C(=O)NCCCN1CCOCC1)c1ccccc1F` , target or system MDA-MB-231 cells overexpressing Bcl-3.
OUT: 1330

###

System: NF-κB activity
Experiment: NF-κB luciferase reporter assay in MDA-MB-231 cells overexpressing Bcl-3
Assay type: cell-based, human
Settings: Homo sapiens; MDA-MB-231 Bcl-3 WT, 24 hrs then reporter 48 hrs; read-out: IC50 NF-κB activity
Assignment: determine reported pIC50 for the given molecules.
Numbers only, as −log10 of the molar value.

INSERT INTO assay_data (given_smiles, assay_system, val) VALUES
  ('COc1cccc(C(=O)NCCN2CCOCC2)c1NC(=O)c1ccccc1F', 'NF-κB activity', 5.97);

Now consider a different molecule.
IN: Query (molecule): `O=C(Nc1ccccc1C(=O)NCCCN1CCOCC1)c1ccccc1F` ; field requested: pIC50
OUT: 5.60

###

System: MCF-10A cells
Experiment: Cell Titre Blue viability assay, MCF-10A
Format: cell-based, human
Settings: Homo sapiens, 24 hrs, extrapolated with GraphPad, read-out: IC50 cell viability, extrapolated from the dose-response curve
quantity: IC50 (mM)
One number for each entry, in mM.

IN: Item `O=C(Nc1ccccc1C(=O)NCCN1CCOCC1)c1ccccc1F` has what recorded IC50?
OUT: 14.9

###

Exercise: state measured IC50 for each of the molecules provided.
Target: Bcl-3-p50 binding (Homo sapiens)
Construct: expressed in transfected cells; host or cells: HEK-293
Sequence (P20749 whole entry): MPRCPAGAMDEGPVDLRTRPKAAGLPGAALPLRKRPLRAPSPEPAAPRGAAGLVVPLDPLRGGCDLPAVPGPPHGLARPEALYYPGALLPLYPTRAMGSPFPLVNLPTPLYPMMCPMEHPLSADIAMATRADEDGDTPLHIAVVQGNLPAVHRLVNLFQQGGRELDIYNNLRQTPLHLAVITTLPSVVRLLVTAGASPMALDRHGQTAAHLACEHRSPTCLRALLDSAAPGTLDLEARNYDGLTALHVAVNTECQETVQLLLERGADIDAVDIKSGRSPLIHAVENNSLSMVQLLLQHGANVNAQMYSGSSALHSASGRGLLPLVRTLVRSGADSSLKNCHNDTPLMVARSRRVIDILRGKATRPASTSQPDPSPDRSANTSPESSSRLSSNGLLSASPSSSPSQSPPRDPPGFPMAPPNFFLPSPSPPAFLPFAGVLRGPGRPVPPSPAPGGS
Experiment: Indirect sandwich ELISA of Bcl-3 binding to p50 in lysates of treated HEK-293 cells overexpressing FLAG-tagged Bcl-3
Format: cell-based
Details: Table 3; read-out: ELISA assay (μM) IC50
Numbers only, in µM.

INSERT INTO measurements (given_smiles, quantity, val) VALUES
  ('COc1cccc(C(=O)NCCN2CCOCC2)c1NC(=O)c1ccccc1F', 'IC50', 0.0119);

IN: Fill blank: measured IC50 of the molecule `COc1ccc(C(=O)Nc2ccccc2C(=O)NCCN2CCOCC2)cc1` is ____.
OUT: 0.0617

###

Test: Cell Titre Blue viability assay, MDA-MB-231
Details: human, MDA-MB-231 cells
quantity: EC50 at 24 h (µM)
Give bare numbers, in µM.

IN: Fill in the blank: the reported EC50 at 24 h of `COc1ccc(C(=O)Nc2ccccc2C(=O)NCCN2CCOCC2)cc1` is ____.
OUT: 781

###

Answer each item with its documented IC50.
Tested on: MDA-MB-231 cells overexpressing Bcl-3
Test: Boyden chamber cell motility assay
Format: cell-based, human
Conditions: Homo sapiens, MDA-MB-231; Table 3; read-out: Cell motility assay (μM) IC50
Protocol: The migratory or invasive capacity of human mammary cancer cell lines was assessed by the Boyden chamber assay. […] Glycerol Gelatin (Sigma, Dorset, UK) was heated in a beaker of boiling water and once liquefied, a drop was placed onto an appropriately labelled microscope slide (R. A. Lamb, Loughborough, UK). […] Mounted slides were left to air dry before being analyzed. […]
Answers are plain numbers, in µM.

Sample answers from the record:
INSERT INTO results (molecule, val) VALUES
  ('O=C(Nc1ccccc1C(=O)NCCN1CCOCC1)c1ccccc1F [Compound 1a]', 0.31),
  ('COc1cccc(C(=O)NCCN2CCOCC2)c1NC(=O)c1ccccc1F [Compound 3a]', 0.9),
  ('O=C(Nc1ccccc1C(=O)NCCCN1CCOCC1)c1ccccc1F [Compound 2a]', 1.33);

Proceeding to the next molecule to report its IC50.
IN: Any idea what its IC50 is? The molecule is COc1ccc(C(=O)Nc2ccccc2C(=O)NCCN2CCOCC2)cc1 [Compound 1f]
OUT: 0.0289
